Target: T1, human factor XIIa (human, UniProt P00748 20-615, biotinylated with Biotin Ester (Zymed); sites not stated)
T1 chain: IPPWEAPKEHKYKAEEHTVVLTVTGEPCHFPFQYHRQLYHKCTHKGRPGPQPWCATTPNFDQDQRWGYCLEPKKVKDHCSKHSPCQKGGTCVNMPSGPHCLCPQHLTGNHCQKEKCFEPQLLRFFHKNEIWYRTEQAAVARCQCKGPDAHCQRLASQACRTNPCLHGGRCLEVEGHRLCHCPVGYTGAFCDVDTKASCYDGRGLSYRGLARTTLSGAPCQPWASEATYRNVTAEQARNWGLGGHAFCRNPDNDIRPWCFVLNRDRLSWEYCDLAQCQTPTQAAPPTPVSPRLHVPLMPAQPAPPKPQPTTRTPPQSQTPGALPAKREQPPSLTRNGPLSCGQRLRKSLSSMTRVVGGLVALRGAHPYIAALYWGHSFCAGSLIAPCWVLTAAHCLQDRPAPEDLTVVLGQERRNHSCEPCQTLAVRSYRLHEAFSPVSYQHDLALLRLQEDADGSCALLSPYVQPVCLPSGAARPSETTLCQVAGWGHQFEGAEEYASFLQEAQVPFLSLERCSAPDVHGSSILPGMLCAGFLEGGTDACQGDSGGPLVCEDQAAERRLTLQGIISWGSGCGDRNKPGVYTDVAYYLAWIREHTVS
Experiment: enzyme inhibition
pKi: −log10 of the molar value.
This section presents binders with their documented pKi values.
property_label: pKi

>>> df
                                     binder  measurement
0  TW6187 (protein) EVVREVCSEQAETGPCRAMIFRWYFDVTEGKCAPFFYGGCYGNRNNFDTEEYCMAVCGSAI         7.04
1  TW6186 (protein) EVVREVCSEQAETGPCRAMHSRWYFDVTEGKCAPFFYGGCYGNRNNFDTEEYCMAVCGSAI         6.73
2  TW6188 (protein) EVVREVCSEQAETGPCRAMIYRWYFDVTEGKCAPFFYGGCYGNRNNFDTEEYCMAVCGSAI         6.38
